Exercise: for every item that follows, state its recorded GI50.
- Tested on: CCRF-CEM
- Assay Procedure: NCI tumour cell line growth inhibition, 48 h
Active and inactive are the calls of the source. No stated cut-off is given here; in the data, active = GI50 up to about 1.1 µM and inactive = higher.

Sample O=C1N[C@@H]([C@H]2CC[C@H](Cl)CN2)C(=O)N[C@H]1[C@H]1CC[C@H](Cl)CN1 ; GI50 observed: 0.152 µM (active)

Sample CCOC(=O)c1cc(Br)c(-c2cc(C)co2)[nH]1 ; GI50 observed: > 100 µM (inactive)

Sample Cc1cnc(SCCN2CCN(C)CC2)nc1-c1cc2ccccc2s1 ; GI50 observed: 3.18 µM (inactive)

Sample COc1ccc2[nH]c3c(c2c1)COc1ccccc1C3=O ; GI50 observed: > 100 µM (inactive)

Sample CCC(C)C1=C(O)[N+]2([O-])Oc3ccc(-c4c(O)c(O)c(-c5ccc(O)cc5)c(OC(C)=O)c4OC(C)=O)cc3OC2(C(C)CC)C(=O)N1O (configuration not stated) ; GI50 observed: 1.88 µM (inactive)

Sample CN(C)CC(=O)N1CCc2c([nH]c3ccccc23)C1c1cccnc1 (configuration not stated) ; GI50 observed: > 100 µM (inactive)

Sample CN(C)c1ccc(/C=c2/c3ccccc3n3nc4ccccc4c23)cc1 ; GI50 observed: 7.98 µM (inactive)

Sample N#Cc1c2c([nH]c(=O)c1C#N)CCCC2 ; GI50 observed: > 100 µM (inactive)

Sample CC(C)(C)OC(=O)NC(CSCc1ccc(C(=O)c2ccccc2)cc1)C(=O)N1CCN(CCCCN2c3ccccc3Sc3cc(N=[N+]=[N-])ccc32)CC1 (configuration not stated) ; GI50 observed: > 100 µM (inactive)

Sample CC1=C2C(=CO[C@H](C)[C@H]2C)C(O)=C(C(=O)O)C1=O [CITRININ] ; GI50 observed: 14.8 µM (inactive)

Sample CCSc1nc(N)c2c(-c3ccccc3)c3c(nc2n1)CCC3 ; GI50 observed: > 100 µM (inactive)

Sample CC(C)(Br)C(Br)CCC(C)(Br)C(Br)CO (configuration not stated) ; GI50 observed: > 10 µM (inactive)

Sample CCN1/C(=C/c2ccc3ccccc3[n+]2CC)C=Cc2ccccc21 ; GI50 observed: 0.26 µM (active)

Sample CCN(CC)C(=S)SS(=O)(=O)c1ccccc1C(=O)O ; GI50 observed: 82 µM (inactive)

Sample O=c1[nH]nc(Cc2c[nH]c3ccccc23)o1 ; GI50 observed: > 100 µM (inactive)

Sample C[C@]12CCC3[C@@H](CC[C@@H]4c5nonc5CC[C@]34C)C1CC[C@@H]2O (some centres not stated) ; GI50 observed: 22 µM (inactive)

Sample S=C(NCc1ccccc1)c1nc[nH]c1C(=S)NCc1ccccc1 ; GI50 observed: 2.96 µM (inactive)

Sample O=C(Cn1c2ccc(Br)cc2c2nc3ccccc3nc21)N1CCOCC1 ; GI50 observed: > 100 µM (inactive)

Sample CCc1cccc(C)c1NS(=O)(=O)c1ccccc1 ; GI50 observed: > 100 µM (inactive)

Sample O=[PH](O)c1ccsc1 ; GI50 observed: > 100 µM (inactive)

Sample CN1C/C(=C\c2ccco2)c2nc(N)nc(-c3ccco3)c2C1 ; GI50 observed: 74.1 µM (inactive)

Sample CC(=O)NCCc1c[nH]c2ccc(Cl)cc12 ; GI50 observed: 60.4 µM (inactive)

Every entry's value here was drawn from ChEMBL document CHEMBL1201862.
